measuredAttribute: melting point (°C)

CC(=O)SCC(=O)c1ccc(N2CCN(S(=O)(=O)c3ccc4ccccc4c3)CC2)cc1    179
Nc1ccccc1NC(=O)c1cnc(N2CCN(S(=O)(=O)c3ccc4ccccc4c3)CC2)nc1    238
CC(=O)Nc1ccc(N2CCN(S(=O)(=O)c3ccc4ccccc4c3)CC2)cc1    200
Cn1cnc(C(=O)Nc2ccc(N3CCN(S(=O)(=O)c4ccc5ccccc5c4)CC3)cc2)c1    252
O=C(NO)c1cnc(N2CCN(S(=O)(=O)c3ccc4ccccc4c3)C(CO)C2)nc1 (stereo not shown)    220
CN(C)Cc1ccccc1-c1ccc(S(=O)(=O)N2CCN(c3ncc(C(=O)NO)cn3)CC2)cc1    190.7
O=C(NO)c1cnc(N2CCN(S(=O)(=O)c3ccc(-c4cccc(CCN5CCCC5)c4)cc3)CC2)nc1    243
NC(=O)C1CN(c2ncc(C(=O)NO)cn2)CCN1S(=O)(=O)c1ccc2ccccc2c1 (stereo not shown)    210

----------
tgt: histone deacetylase (HeLa nuclear extracts)
testProtocol: In vitro assay for inhibition of histone deacetylase
Assay type: biochemical
experimentalParameters: [3H]acetylated histone H4 peptide substrate
measuredAttribute: Enzyme activity pIC50

COc1ccc(-c2ccc(S(=O)(=O)N3CCN(c4ncc(C(=O)NO)cn4)CC3)cc2)c(OC)c1    7.316
O=C(NO)c1ccc(N2CCN(S(=O)(=O)c3cccc(-c4ccccc4)c3)CC2)cc1    6.157
O=C(NO)c1ccc(N2CCN(S(=O)(=O)c3ccc4ccccc4c3)CC2)nn1    6.491
O=C(NO)c1cnc(N2CCN(S(=O)(=O)c3ccc(-c4ccc[nH]4)cc3)CC2)nc1    7.169
O=C(NO)c1cnc(N2CCN(S(=O)(=O)c3ccc(S(=O)(=O)c4ccccc4)s3)CC2)nc1    7.631
CN(C)c1cccc2c(S(=O)(=O)N3CCN(c4ccc(C(=O)NO)cc4)CC3)cccc12    6.346
O=C(NO)c1cnc(N2CCN(S(=O)(=O)c3ccc(-c4ccc(F)cc4)cc3)CC2)nc1    7.99
CN(C)Cc1ccccc1-c1ccc(S(=O)(=O)N2CCN(c3ncc(C(=O)NO)cn3)CC2)cc1    8.456
COc1cncc(-c2ccc(S(=O)(=O)N3CCN(c4ncc(C(=O)NO)cn4)CC3)cc2)c1    7.545
O=C(NO)c1ccc(N2CCN(S(=O)(=O)c3ccc(Cl)cc3)CC2)cc1    6.227
Cc1ccc(-c2ccc(S(=O)(=O)N3CCN(c4ncc(C(=O)NO)cn4)CC3)cc2)cc1    7.146
COc1ccc(S(=O)(=O)N2CCN(c3ncc(C(=O)NO)cn3)CC2)cc1OC    7.49
O=C(NO)c1cnc(N2CCN(S(=O)(=O)c3ccc(-c4cccc(CN5CCCC5)c4)cc3)CC2)nc1    8.45
O=C(NO)c1cnc(N2CCN(S(=O)(=O)c3ccc(-c4ccc(CN5CCN(CCO)CC5)cc4)cc3)CC2)nc1    7.969
CN(C)CCCOc1ccc(-c2ccc(S(=O)(=O)N3CCN(c4ncc(C(=O)NO)cn4)CC3)cc2)cc1    8.568
CN(C)Cc1ccc(-c2ccc(S(=O)(=O)N3CCN(c4ncc(C(=O)NO)cn4)CC3)cc2)cc1    8.553
COC1CCN(Cc2sccc2-c2ccc(S(=O)(=O)N3CCN(c4ncc(C(=O)NO)cn4)CC3)cc2)CC1    8.175
CN(C)Cc1cccc(-c2ccc(S(=O)(=O)N3CCN(c4ncc(C(=O)NO)cn4)CC3)cc2)c1    8.766
O=C(NO)c1ccc(C(=O)N2CCN(S(=O)(=O)c3ccc4ccccc4c3)CC2)cc1    6.423
CN(CCO)Cc1sccc1-c1ccc(S(=O)(=O)N2CCN(c3ncc(C(=O)NO)cn3)CC2)cc1    8.152
O=C(NO)c1cnc(N2CCN(S(=O)(=O)c3ccc(-c4ccc(Cl)c(Cl)c4)cc3)CC2)nc1    6.428
